Method: NCI Yeast Anticancer Drug Screen. Data for the bub3 strain (AID 167)
Measurement context: S. cerevisiae bub3 mutant strain, at 5.0 µM (retest, dose inferred, filed as 0.5)
Compounds without any hit were thinned out: in the full panel of roughly 79,000, 15% have a hit. Activity calls are given as the source filed them. Rule as the data show it: active = growth inhibition above about 70%; inactive = the rest.
Possible outcomes: class 1 for active, class 0 for inactive

1) CC(=O)[O][Hg][c]1ccc(N)[c]([Hg][O]C(C)=O)c1
class 1
2) O=[N+]([O-])/C=C/c1ccccc1Cl
class 1
3) CCCC1CC[N-]CC1.CCCC1CC[N-]CC1.N#C[S-].N#C[S-].[Cd]
class 0
4) CC(C)=CCC/C(C)=C/CC/C(C)=C/Cc1c(O)c2ccccc2oc1=O
class 0
5) O=[N+]([O-])c1ccc(N(CCO)CCO)c2c1no[n+]2[O-]
class 0
6) O=C(O)C1CC2c3ccccc3C1([N+](=O)[O-])c1ccccc12 (stereo unspecified)
class 0
